target: PKB (Homo sapiens); construct: His; HA; made in house; experiment: PKB in vitro kinase activity assay (soluble His-HA-PKB / SPA bead screening); format: biochemical; settings: 1 μM compound concentration, Assay 2
Where no end group is shown, it is not given here. Side-chain parts run from the residue outwards. [ ]: non-standard residue; d: D form. The star is where a group is joined. X1 = 5‑aminoethylsulfonamide isoquinoline, O=S(=O)(NCCN*)c1cccc2cnccc12; hLeu = CC(C)CC[C@H](N)C(=O)O; Orn = NCCC[C@H](N)C(=O)O; Dab = NCC[C@H](N)C(=O)O; Dap = NC[C@H](N)C(=O)O
measuredMetric: PKB-kinase (spa) Assay 2, % inhibition of kinase activity (%)

I. 60020-10: Arg-Pro-Arg-Orn-Glu(5-aminoethylsulfonamide isoquinoline)-Dab-Hol (RPR[Orn]E(X1)[Dab][hLeu])
II. 60020-36: Arg-Pro-Arg-Dap-Glu(Gly-5-aminoethylsulfonamide isoquinoline)-Orn-Hol (RPR[Dap]E([Gly-X1])[Orn][hLeu])
Hi team, can someone confirm which has the larger PKB-kinase (spa) Assay 2, % inhibition of kinase activity: I or II ? Thanks. // caller expects the label of the chosen entry
II

====

biological target: PKB (Homo sapiens, UniProt P31749); construct: His; HA; made in house; test: PKB in vitro kinase activity assay (soluble His-HA-PKB / SPA bead screening); type: biochemical; conditions: 1 μM compound concentration, Assay 1
Sequence (P31749 whole entry, species assumed): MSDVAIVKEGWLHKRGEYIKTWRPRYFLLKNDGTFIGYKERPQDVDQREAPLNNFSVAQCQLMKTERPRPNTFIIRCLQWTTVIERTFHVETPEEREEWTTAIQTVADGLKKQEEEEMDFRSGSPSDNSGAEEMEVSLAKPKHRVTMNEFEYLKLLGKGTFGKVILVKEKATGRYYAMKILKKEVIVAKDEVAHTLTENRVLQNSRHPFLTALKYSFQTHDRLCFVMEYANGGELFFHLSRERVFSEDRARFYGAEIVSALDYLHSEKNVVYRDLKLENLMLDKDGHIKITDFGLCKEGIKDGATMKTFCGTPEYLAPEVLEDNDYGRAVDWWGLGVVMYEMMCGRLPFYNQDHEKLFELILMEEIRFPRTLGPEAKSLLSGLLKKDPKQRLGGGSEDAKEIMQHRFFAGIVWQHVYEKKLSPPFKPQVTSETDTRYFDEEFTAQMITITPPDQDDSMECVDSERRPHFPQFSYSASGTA
Where no end group is shown, it is not given here. Side-chain parts run from the residue outwards. [ ]: non-standard residue; d: D form. The star is where a group is joined. X1 = 5‑aminoethylsulfonamide isoquinoline, O=S(=O)(NCCN*)c1cccc2cnccc12; hLeu = CC(C)CC[C@H](N)C(=O)O; Nle = CCCC[C@H](N)C(=O)O; Orn = NCCC[C@H](N)C(=O)O; Nva = CCC[C@H](N)C(=O)O; Abu = CC[C@H](N)C(=O)O
measuredMetric: PKB-kinase (spa) Assay 1, % inhibition of kinase activity (%)

{"substance": "60020-27: Arg-Pro-Arg-Nle-Glu(5-aminoethylsulfonamide isoquinoline)-Orn-Phe (RPR[Nle]E(X1)[Orn]F)", "unitInfo": "%", "reportedMeasurement": 63}
{"substance": "60020-22: Arg-Pro-Arg-Abu-Glu(5-aminoethylsulfonamide isoquinoline)-Ala-Hol (RPR[Abu]E(X1)A[hLeu])", "unitInfo": "%", "reportedMeasurement": "−5"}
{"substance": "60020-16: Arg-Pro-Arg-Orn-Glu(5-aminoethylsulfonamide isoquinoline)-Nva-Hol (RPR[Orn]E(X1)[Nva][hLeu])", "unitInfo": "%", "reportedMeasurement": 5}
{"substance": "60020-51: Arg-Pro-Arg-Abu-Glu(Gly-5-aminoethylsulfonamide isoquinoline)-Orn-Phe (RPR[Abu]E([Gly-X1])[Orn]F)", "unitInfo": "%", "reportedMeasurement": 47}

a. 60020-30: Arg-Pro-Arg-Nle-Glu(5-aminoethylsulfonamide isoquinoline)-Ala-Hol (RPR[Nle]E(X1)A[hLeu])
b. 60020-15: Arg-Pro-Arg-Orn-Glu(5-aminoethylsulfonamide isoquinoline)-Nva-Phe (RPR[Orn]E(X1)[Nva]F)
Which record shows the lower PKB-kinase (spa) Assay 1, % inhibition of kinase activity: the first, a , or the second, b ? // caller expects the label of the chosen entry
a
(a: 14%, b: 31%)

Cited source: patent US7407939B2
